- Tested on: SARS-CoV-2 infection
- procedure.text: Retrospective cohort (BJC Healthcare): antidepressant exposure and ED or hospital encounter within 30 days
- Assay type: in vivo, human
- experimental.conditions: share of exposed outpatients with an encounter after a positive SARS-CoV-2 test
observable: ED or hospital encounter within 30 days, % (%)
Give bare numbers, in %.

Worked examples, 8 compounds total:
COCCCC/C(=N\OCCN)c1ccc(C(F)(F)F)cc1.O=C(O)/C=C\C(=O)O: 21.1
COc1ccc(C(CN(C)C)C2(O)CCCCC2)cc1 (stereo not drawn): 17.1
CN1CCN2c3ncccc3Cc3ccccc3C2C1 (stereo not drawn): 27.9
CC(NC(C)(C)C)C(=O)c1cccc(Cl)c1 (stereo not drawn): 14.3
CN(C)CCC=C1c2ccccc2COc2ccccc21 [Doxepin]: 27.5
CN(C)CCCC1(c2ccc(F)cc2)OCc2cc(C#N)ccc21 (stereo not drawn): 15.8
Cc1ccc(Sc2ccccc2N2CCNCC2)c(C)c1: 14.3
CNCCC=C1c2ccccc2CCc2ccccc21: 24.3

Return reported ED or hospital encounter within 30 days, % values for all items listed beneath this line.
1. CN(C)CCC=C1c2ccccc2CCc2ccccc21
2. CN[C@H]1CC[C@@H](c2ccc(Cl)c(Cl)c2)c2ccccc21
3. O=c1n(CCCN2CCN(c3cccc(Cl)c3)CC2)nc2ccccn12

**Result**
1. 23.6
2. 17.9
3. 22.6

**Query** Give ED or hospital encounter within 30 days, % for the following compound: CN(C)CCCN1c2ccccc2CCc2ccccc21
**Result** 23.5

----------
- Test system: SARS-CoV-2 infection
- procedure.text: Retrospective cohort (BJC Healthcare): antidepressant exposure and ED or hospital encounter within 30 days
- Format: in vivo, human
- experimental.conditions: vs No Antidepressant (Ref); multivariable logistic regression, complete cases
The threshold is inclusive: Adjusted Odds Ratio, ED or hospital encounter within 30 days of exactly 0.9 counts as y; values below receive n.

CN(C)CCC=C1c2ccccc2CCc2ccccc21: y
Fc1ccc([C@@H]2CCNC[C@H]2COc2ccc3c(c2)OCO3)cc1: n
N#Cc1ccc2[nH]cc(CCCCN3CCN(c4ccc5oc(C(N)=O)cc5c4)CC3)c2c1: y
CNCCC=C1c2ccccc2CCc2ccccc21: y
CNCC[C@H](Oc1cccc2ccccc12)c1cccs1: y
COc1ccc(C(CN(C)C)C2(O)CCCCC2)cc1 (centres unmarked): n
O=c1n(CCCN2CCN(c3cccc(Cl)c3)CC2)nc2ccccn12: y
CN(C)CC(c1ccc(O)cc1)C1(O)CCCCC1 (centres unmarked): y
CN(C)CCC=C1c2ccccc2COc2ccccc21 [Doxepin]: y
CNCCCN1c2ccccc2CCc2ccccc21: n

Turning to the following compound.
**Query** Confirm if Adjusted Odds Ratio, ED or hospital encounter within 30 days reported for the compound Cc1ccc(Sc2ccccc2N2CCNCC2)c(C)c1 is 0.9 or above.
**Result** n

----------
Hi there, I'd appreciate the recorded ED or hospital encounter within 30 days, % for every entry that follows.
- Test system: SARS-CoV-2 infection
- procedure.text: Retrospective cohort (BJC Healthcare): antidepressant exposure and ED or hospital encounter within 30 days
- Assay type: in vivo, human
- experimental.conditions: share of exposed outpatients with an encounter after a positive SARS-CoV-2 test
Answers are plain numbers, in %.

Worked examples, 2 molecules total:
CN(C)CC(c1ccc(O)cc1)C1(O)CCCCC1 (stereo not drawn): 18.7
Fc1ccc([C@@H]2CCNC[C@H]2COc2ccc3c(c2)OCO3)cc1: 15.1

Return reported ED or hospital encounter within 30 days, % values for all items listed beneath this line.
1. N#Cc1ccc2[nH]cc(CCCCN3CCN(c4ccc5oc(C(N)=O)cc5c4)CC3)c2c1
2. CN(C)CCC[C@@]1(c2ccc(F)cc2)OCc2cc(C#N)ccc21
3. CCN(CC)C(=O)[C@@]1(c2ccccc2)C[C@H]1CN
4. CCc1nn(CCCN2CCN(c3cccc(Cl)c3)CC2)c(=O)n1CCOc1ccccc1
5. CNCCCN1c2ccccc2CCc2ccccc21
6. CNCCC(Oc1ccc(C(F)(F)F)cc1)c1ccccc1 (stereo not drawn)
7. CNCC[C@H](Oc1cccc2ccccc12)c1cccs1

**Result**
29.4
16.2
20.0
0.0
10.0
16.2
21.8
